Test system: CCRIS mutagenicity, Ames/micronucleus/aberration tests
Test: CCRIS mutagenicity studies
Settings: Test System: AMES SALMONELLA TYPHIMURIUM; Strain/Indicator: TA1535; Metabolic Activation: NONE; Method: STANDARD PLATE
Activity calls are given as the source filed them. The rule behind the calls is not given here.
Labels: yes (active), no (inactive)

- compound: "CC(C)N1C(=O)c2ccccc2NS1(=O)=O"
  category label: "no"
- compound: "Nc1ccc([N+](=O)[O-])c(O)c1"
  category label: "no"
- compound: "O=[N+]([O-])/C(Br)=C\\c1ccccc1"
  category label: "no"
- compound: "CC1=CCC(C(C)(C)O)CC1 (configuration not stated)"
  category label: "no"
- compound: "CC(O)CCC(=O)c1ccoc1 (configuration not stated)"
  category label: "no"
- compound: "O=CC(O)C(O)C(O)C(O)COC1OC(COC2OC(CO)C(O)C(O)C2O)C(O)C(O)C1O (configuration not stated)"
  category label: "no"
- compound: "NCCNCCN"
  category label: "no"
- compound: "C=CCCCCCCCCC"
  category label: "no"
- compound: "COc1cc2c(c(OC)c1OC)-c1ccc(OC)c(=O)cc1[C@@H](NC(C)=O)CC2"
  category label: "no"
- compound: "CCOCOCC"
  category label: "no"
- compound: "COc1cc(O)c2c(=O)c(O)c(-c3ccc(O)c(O)c3)oc2c1"
  category label: "no"
- compound: "C/C=N/O"
  category label: "no"
- compound: "CCN=NNCC"
  category label: "yes"
- compound: "c1ccc(-c2ccccc2)cc1"
  category label: "no"
- compound: "C#C[C@]1(O)CC[C@H]2[C@@H]3CCC4=CC(=O)CC[C@@H]4[C@H]3CC[C@@]21C"
  category label: "no"
- compound: "O=[N+]([O-])OCC(CO[N+](=O)[O-])O[N+](=O)[O-]"
  category label: "yes"
- compound: "c1ccc2cc3cc4ccccc4cc3cc2c1"
  category label: "no"
